Tested on: Staphylococcus aureus ATCC 6538
Test: DGHM suspension test, microbicidal activity
Format: cell-based
Settings: CU 200 mg/l; contact time 5 mins.
MEASURE NAME: logarithmic reduction factor

See these solved cases before continuing.
[[record]]
smiles_data = "CCCCCCCCCC(=O)OCC[N+](C)(C)CCOC(=O)CCCCCCCCC.COS(=O)(=O)[O-]"
measure_name = "logarithmic reduction factor"
value_reported = ">5.56"

[[record]]
smiles_data = "CCCCCCCC(=O)OCC[N+](C)(CCO)CCOC(=O)CCCCCCC.COS(=O)(=O)[O-]"
measure_name = "logarithmic reduction factor"
value_reported = ">5.75"


Turning to the following compound.
Prompt: Name the reported logarithmic reduction factor value associated with the compound CCCCCCCC(=O)OCC[N+](C)(C)CCOC(=O)CCCCCCC.COS(=O)(=O)[O-]
Response: <1.32

====

Tested on: Candida albicans ATCC 10231
Test: DGHM suspension test, microbicidal activity
Type: cell-based
Conditions: CU 100 mg/l; contact time 15 mins.
MEASURE NAME: logarithmic reduction factor

See these solved cases before continuing.
[[record]]
smiles_data = "CCCCCCCC(=O)OCC[N+](C)(CCO)CCOC(=O)CCCCCCC.COS(=O)(=O)[O-]"
value_reported = ">4.18"

[[record]]
smiles_data = "CCCCCCCC(=O)OCC[N+](C)(C)CCOC(=O)CCCCCCC.COS(=O)(=O)[O-]"
value_reported = 0.41

[[record]]
smiles_data = "CCCCCCCCCC(=O)OCC[N+](C)(C)CCOC(=O)CCCCCCCCC.COS(=O)(=O)[O-]"
value_reported = ">4.84"

[[record]]
smiles_data = "CCCCCCCCC(=O)OCC[N+](C)(C)CCOC(=O)CCCCCCCC.COS(=O)(=O)[O-]"
value_reported = ">4.63"


Prompt: Name the reported logarithmic reduction factor value associated with the compound CCCCCCCC(=O)OCC[N+](C)(CCOC(=O)CCCCCCC)CCOC(=O)CCCCCCC.COS(=O)(=O)[O-]
Response: >4.71

Prompt: # iterate: CCCCCCCCCC(=O)OCC[N+](C)(CCO)CCOC(=O)CCCCCCCCC.COS(=O)(=O)[O-]
Response: 3.03

====

Tested on: Candida albicans ATCC 10231
Assay: DGHM suspension test, microbicidal activity
Format: cell-based
Conditions: CU 50 mg/l; contact time 15 mins.
MEASURE NAME: logarithmic reduction factor

See these solved cases before continuing.
[[record]]
smiles_data = "CCCCCCCCC(=O)OCC[N+](C)(C)CCOC(=O)CCCCCCCC.COS(=O)(=O)[O-]"
tgt = "Candida albicans ATCC 10231"
value_reported = ">4.63"

[[record]]
smiles_data = "CCCCCCCCCC(=O)OCC[N+](C)(CCO)CCOC(=O)CCCCCCCCC.COS(=O)(=O)[O-]"
tgt = "Candida albicans ATCC 10231"
value_reported = 1.64

[[record]]
smiles_data = "CCCCCCCC(=O)OCC[N+](C)(C)CCOC(=O)CCCCCCC.COS(=O)(=O)[O-]"
tgt = "Candida albicans ATCC 10231"
value_reported = "<0.37"

[[record]]
smiles_data = "CCCCCCCC(=O)OCC[N+](C)(CCOC(=O)CCCCCCC)CCOC(=O)CCCCCCC.COS(=O)(=O)[O-]"
tgt = "Candida albicans ATCC 10231"
value_reported = ">4.71"

[[record]]
smiles_data = "CCCCCCCCCC(=O)OCC[N+](C)(C)CCOC(=O)CCCCCCCCC.COS(=O)(=O)[O-]"
tgt = "Candida albicans ATCC 10231"
value_reported = ">4.84"


Turning to the following compound.
Prompt: Form entry - test system: Candida albicans ATCC 10231; read-out: logarithmic reduction factor; compound: CCCCCCCC(=O)OCC[N+](C)(CCO)CCOC(=O)CCCCCCC.COS(=O)(=O)[O-]
Response: >4.18

====

Test system: Staphylococcus aureus ATCC 6538
Experiment: DGHM suspension test, microbicidal activity
Format: cell-based
Settings: CU 200 mg/l; contact time 60 mins.
MEASURE NAME: logarithmic reduction factor

[[record]]
compound = "CCCCCCCCCCCC(=O)OCC[N+](C)(CCO)CCOC(=O)CCCCCCCCCCC.COS(=O)(=O)[O-] [Example 5]"
value_reported = ">5.86"

[[record]]
compound = "CCCCCCCC(=O)OCC[N+](C)(C)CCOC(=O)CCCCCCC.COS(=O)(=O)[O-] [Example 1]"
value_reported = "<1.32"

[[record]]
compound = "CCCCCCCCCC(=O)OCC[N+](C)(C)CCOC(=O)CCCCCCCCC.COS(=O)(=O)[O-] [Example 10]"
value_reported = ">5.69"

[[record]]
compound = "CCCCCCCCCC(=O)OCC[N+](C)(CCO)CCOC(=O)CCCCCCCCC.COS(=O)(=O)[O-] [Example 6]"
value_reported = ">5.86"

[[record]]
compound = "CCCCCCCC(=O)OCC[N+](C)(CCOC(=O)CCCCCCC)CCOC(=O)CCCCCCC.COS(=O)(=O)[O-] [Example 2]"
value_reported = ">5.41"


Prompt: Name the reported logarithmic reduction factor value associated with the compound CCCCCCCCC(=O)OCC[N+](C)(C)CCOC(=O)CCCCCCCC.COS(=O)(=O)[O-] [Example 3]
Response: >5.55

Prompt: # iterate: CCCCCCCCCC(=O)OCC[N+](C)(CCOC(=O)CCCCCCCCC)CCOC(=O)CCCCCCCCC.COS(=O)(=O)[O-] [Example 9]
Response: 2.97

Prompt: # iterate: CCCCCCCC(=O)OCC[N+](C)(CCO)CCOC(=O)CCCCCCC.COS(=O)(=O)[O-] [Example 7]
Response: >5.69

Prompt: # iterate: CCCCCCCCCCCC(=O)OCC[N+](C)(C)CCOC(=O)CCCCCCCCCCC.COS(=O)(=O)[O-] [Example 8]
Response: >5.60

====

Tested on: Pseudomonas aeruginosa ATCC 15442
Assay: DGHM suspension test, microbicidal activity
Format: cell-based
Details: CU 100 mg/l; contact time 5 mins.
Items are presented alongside their recorded logarithmic reduction factor.

See these solved cases before continuing.
[[record]]
smiles_data = "CCCCCCCCCC(=O)OCC[N+](C)(CCOC(=O)CCCCCCCCC)CCOC(=O)CCCCCCCCC.COS(=O)(=O)[O-]"
value_reported = "<1.88"

[[record]]
smiles_data = "CCCCCCCCCCCC(=O)OCC[N+](C)(CCO)CCOC(=O)CCCCCCCCCCC.COS(=O)(=O)[O-]"
value_reported = "<1.85"

[[record]]
smiles_data = "CCCCCCCC(=O)OCC[N+](C)(CCOC(=O)CCCCCCC)CCOC(=O)CCCCCCC.COS(=O)(=O)[O-]"
value_reported = "<1.38"

[[record]]
smiles_data = "CCCCCCCC(=O)OCC[N+](C)(CCO)CCOC(=O)CCCCCCC.COS(=O)(=O)[O-]"
value_reported = 3.64

[[record]]
smiles_data = "CCCCCCCCC(=O)OCC[N+](C)(C)CCOC(=O)CCCCCCCC.COS(=O)(=O)[O-]"
value_reported = 4.36


Prompt: Name the reported logarithmic reduction factor value associated with the molecule CCCCCCCC(=O)OCC[N+](C)(C)CCOC(=O)CCCCCCC.COS(=O)(=O)[O-]
Response: <1.83

Prompt: # iterate: CCCCCCCCCCCC(=O)OCC[N+](C)(C)CCOC(=O)CCCCCCCCCCC.COS(=O)(=O)[O-]
Response: <1.88

Prompt: # iterate: CCCCCCCCCC(=O)OCC[N+](C)(C)CCOC(=O)CCCCCCCCC.COS(=O)(=O)[O-]
Response: 3.11

Prompt: # iterate: CCCCCCCCCC(=O)OCC[N+](C)(CCO)CCOC(=O)CCCCCCCCC.COS(=O)(=O)[O-]
Response: <1.85

====

Tested on: Candida albicans ATCC 10231
Assay: DGHM suspension test, microbicidal activity
Type: cell-based
Details: CU 400 mg/l; contact time 60 mins.
Items are presented alongside their recorded logarithmic reduction factor.

See these solved cases before continuing.
[[record]]
compound = "CCCCCCCC(=O)OCC[N+](C)(CCO)CCOC(=O)CCCCCCC.COS(=O)(=O)[O-] [Example 7]"
tgt = "Candida albicans ATCC 10231"
value_reported = ">4.27"

[[record]]
compound = "CCCCCCCCCC(=O)OCC[N+](C)(CCO)CCOC(=O)CCCCCCCCC.COS(=O)(=O)[O-] [Example 6]"
tgt = "Candida albicans ATCC 10231"
value_reported = ">4.67"

[[record]]
compound = "CCCCCCCC(=O)OCC[N+](C)(C)CCOC(=O)CCCCCCC.COS(=O)(=O)[O-] [Example 1]"
tgt = "Candida albicans ATCC 10231"
value_reported = ">4.36"

[[record]]
compound = "CCCCCCCC(=O)OCC[N+](C)(CCOC(=O)CCCCCCC)CCOC(=O)CCCCCCC.COS(=O)(=O)[O-] [Example 2]"
tgt = "Candida albicans ATCC 10231"
value_reported = ">4.68"


Turning to the following compound.
Prompt: Form entry - test system: Candida albicans ATCC 10231; read-out: logarithmic reduction factor; compound: CCCCCCCCC(=O)OCC[N+](C)(C)CCOC(=O)CCCCCCCC.COS(=O)(=O)[O-] [Example 3]
Response: >4.67
